- tested-target: Bcr-Abl (Homo sapiens)
- Sequence (P00519 whole entry): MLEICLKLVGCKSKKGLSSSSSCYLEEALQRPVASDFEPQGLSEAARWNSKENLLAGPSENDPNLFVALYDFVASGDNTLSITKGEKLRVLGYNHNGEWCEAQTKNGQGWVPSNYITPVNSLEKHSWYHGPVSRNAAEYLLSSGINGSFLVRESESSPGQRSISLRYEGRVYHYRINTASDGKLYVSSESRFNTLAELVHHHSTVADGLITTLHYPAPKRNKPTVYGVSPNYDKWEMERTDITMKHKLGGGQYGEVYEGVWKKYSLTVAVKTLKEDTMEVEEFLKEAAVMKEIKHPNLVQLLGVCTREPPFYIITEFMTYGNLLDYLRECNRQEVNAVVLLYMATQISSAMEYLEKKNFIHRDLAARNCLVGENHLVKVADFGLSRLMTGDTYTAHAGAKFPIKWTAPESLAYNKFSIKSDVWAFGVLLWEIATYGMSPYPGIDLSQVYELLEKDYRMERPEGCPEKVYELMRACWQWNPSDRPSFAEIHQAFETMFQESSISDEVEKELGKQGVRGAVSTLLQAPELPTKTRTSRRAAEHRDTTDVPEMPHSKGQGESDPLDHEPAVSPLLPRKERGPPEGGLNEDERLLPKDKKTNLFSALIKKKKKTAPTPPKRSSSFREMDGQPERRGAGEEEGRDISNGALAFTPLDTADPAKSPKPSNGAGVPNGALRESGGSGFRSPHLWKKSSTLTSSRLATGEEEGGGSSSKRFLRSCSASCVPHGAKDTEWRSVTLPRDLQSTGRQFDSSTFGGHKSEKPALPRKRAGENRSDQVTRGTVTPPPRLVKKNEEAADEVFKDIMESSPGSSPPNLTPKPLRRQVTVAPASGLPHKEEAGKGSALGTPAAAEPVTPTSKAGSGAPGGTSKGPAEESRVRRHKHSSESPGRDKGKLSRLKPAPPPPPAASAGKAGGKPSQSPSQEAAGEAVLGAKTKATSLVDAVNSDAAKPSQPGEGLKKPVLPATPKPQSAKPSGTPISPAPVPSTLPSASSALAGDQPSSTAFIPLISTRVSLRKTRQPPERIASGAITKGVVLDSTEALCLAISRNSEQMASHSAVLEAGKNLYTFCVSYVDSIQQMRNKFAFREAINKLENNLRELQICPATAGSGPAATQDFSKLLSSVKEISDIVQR
- measurement-description: Bcr-Abl kinase assay
value-type: pIC50
Conceptually, pIC50 converts a concentration in mol/L into minus its log10.

Given the molecule Cc1ccc(NC(=O)c2ccc(CN3CCN(CCF)CC3)cc2)cc1Nc1nccc(-c2cccnc2)n1 [Compound 11b] , what is its reported pIC50?
5.89

Provenance of the data: paper PMC4124913
